# measured_on: T1, human MSLN-R3 on HEK293T-hMSLN-R3 recombinant cells (human, UniProt Q13421 487-606)
# T1 construct: the C-terminal limit is uncertain; also called human MSLN-R3 membrane protein
# measurement_description: FACS, HEK293T-hMSLN-R3 cells

{"binder": "F2.39.3-H5 (scFv, not shown: small tags and cut ends, also called S009-F2.39.3 humanized antibody VH2 + VL1) scFv: EVQLVQSGAEVKKPGASVKVSCKASGYTFTNYWMHWVRQAPGQGLEWMGNINPSSGDSYYNERFMSRVTMTVDKSTSTAYMELSSLRSEDTAVYYCARSGGLWLAFWGQGTLVTVSSGGGGSGGGGSGGGGSDIVMTQSPDSLAVSLGERATINCKSSQTLLNSVSQNNYLAWYQQKPGQSPKLLIYFASTRESGVPDRFSGSGSGTDFTLTISSLQAEDVAVYYCQQHYRTPYTFGGGTKVEIK", "EC50": "4.65 nM"}
{"binder": "F2.23.12-H1 (scFv, not shown: small tags and cut ends, also called S009-F2.23.12 humanized antibody VH1 + VL1) scFv: EVQLVQSGAEVKKPGASVKVSCKASGYTFTNYWMHWVRQAPGQGLEWMGNINPSNGGPYYNERFRSRVTMTVDKSTSTVYMELSSLRSEDTAVYYCARPYYGSSYGYFDYWGQGTTVTVSSGGGGSGGGGSGGGGSDIQMTQSPSSLSASVGDRVTITCKASQDINKYIAWYQQKPGKAPKLLIHYTSELQPGVPSRFSGSGSGTDFTFTISSLQPEDIATYYCLQYANPLRTFGGGTKVEIK", "EC50": "4.7 nM"}
{"binder": "F2.39.3-H8 (scFv, not shown: small tags and cut ends, also called S009-F2.39.3 humanized antibody VH2 + VL4) scFv: EVQLVQSGAEVKKPGASVKVSCKASGYTFTNYWMHWVRQAPGQGLEWMGNINPSSGDSYYNERFMSRVTMTVDKSTSTAYMELSSLRSEDTAVYYCARSGGLWLAFWGQGTLVTVSSGGGGSGGGGSGGGGSDIVMTQTPLSLSVTPGQPASISCKSSQTLLNSVSQNNYLAWYQQKPGQSPTLLVYFASTRESGVPDRFSGSGSGTDFTLKISRVEAEDVGVYYCQQHYRTPYTFGGGTKVEIK", "EC50": "6.91 nM"}
